Molecular target: B2 bradykinin receptor (Cavia porcellus, UniProt O70526)
Sequence (O70526 whole entry): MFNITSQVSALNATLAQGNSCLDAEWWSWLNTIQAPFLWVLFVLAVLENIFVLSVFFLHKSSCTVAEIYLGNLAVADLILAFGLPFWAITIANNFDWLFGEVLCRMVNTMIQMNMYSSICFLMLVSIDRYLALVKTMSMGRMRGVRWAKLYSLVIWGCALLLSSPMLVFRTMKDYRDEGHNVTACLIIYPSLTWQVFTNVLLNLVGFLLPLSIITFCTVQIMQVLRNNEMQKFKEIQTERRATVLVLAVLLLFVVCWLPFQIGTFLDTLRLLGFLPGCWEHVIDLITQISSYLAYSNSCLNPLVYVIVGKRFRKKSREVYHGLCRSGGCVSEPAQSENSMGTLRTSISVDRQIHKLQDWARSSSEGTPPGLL
Experiment: In vitro for inhibition of specific binding of [3H]BK (0.06 nM) to bradykinin receptor B2 in guinea pig ileum membrane preparations.
pIC50: −log10 of the molar value.
Could you please report measured pIC50 for the items listed next?

Take a look at these entries with their results.
{"Compound": "Cc1nc2c(C(=O)Nc3c(Cl)cccc3Cl)cccn2c1Br", "pIC50": "< 4.00"}
{"Compound": "CC(=O)OCC(=O)N(C)c1ccc(Cl)c(COc2cccn3c(Br)c(C)nc23)c1Cl", "pIC50": 6.30}

Respectfully, I request pIC50 for each entry included below.
1. CC(=O)N(C)c1c(Cl)cc(Cl)c(COc2cccn3c(Br)c(C)nc23)c1Cl
2. Cc1nc2c(NC(=O)c3c(Cl)cccc3Cl)cccn2c1Cl
3. CCOC(=O)c1c(C)nc2c(OCc3c(Cl)cccc3Cl)cccn12
4. Cc1nc2c(COc3c(Cl)cccc3Cl)cccn2c1Br

6.38
< 4.00
< 4.00
< 4.00

---

Molecular target: B2 bradykinin receptor (Cavia porcellus)
Sequence (O70526 whole entry): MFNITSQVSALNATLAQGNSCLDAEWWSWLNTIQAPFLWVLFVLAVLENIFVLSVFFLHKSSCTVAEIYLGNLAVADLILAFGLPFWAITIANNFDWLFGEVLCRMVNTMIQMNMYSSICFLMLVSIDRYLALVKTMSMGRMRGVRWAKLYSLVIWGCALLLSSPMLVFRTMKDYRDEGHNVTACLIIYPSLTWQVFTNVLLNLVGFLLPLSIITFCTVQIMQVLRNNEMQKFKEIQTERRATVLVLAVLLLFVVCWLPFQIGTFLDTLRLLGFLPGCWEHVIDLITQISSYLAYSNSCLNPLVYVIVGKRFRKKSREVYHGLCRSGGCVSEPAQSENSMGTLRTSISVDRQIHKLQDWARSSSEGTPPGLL
Experiment: In vitro for inhibition of specific binding of [3H]BK (0.06 nM) to bradykinin receptor B2 in guinea pig ileum membrane preparations.
Format: cell membranes
Measured endpoint: log10 IC50 (log10 of the value in µM)
Reminder: these figures are log10 of reported IC50, in µM before transformation.

Take a look at these entries with their results.
{"Compound": "CCn1c(C)cc(C#N)c1-c1ccc(COc2cc(C)nc3ccccc23)cc1", "System under test": "B2 bradykinin receptor (Cavia porcellus)", "Measured endpoint": "log10 IC50", "Observed result": 1.49}
{"Compound": "Clc1cccc(Cl)c1COc1cccn2ccnc12", "System under test": "B2 bradykinin receptor (Cavia porcellus)", "Measured endpoint": "log10 IC50", "Observed result": 1.49}

Respectfully, I request log10 IC50 for each entry included below.
1. Cc1nc2c(OCc3c(Cl)cccc3Cl)cccn2c1Br
2. CNC(=O)NCC(=O)N(C)c1ccc(Cl)c(COc2cccn3c(Br)c(C)nc23)c1Cl
3. CCC(=O)NCC(=O)N(C)c1ccc(Cl)c(COc2cccn3c(Br)c(C)nc23)c1Cl
4. CC(=O)NCC(=O)N(C)c1ccc(Cl)c(COc2cccn3c(Br)c(C)nc23)c1Cl.Cl

-0.64
-1.34
-1.72
-1.80
